These entries and their values trace back to the supplement of paper PMC10567573.

B1: ZC3H15 (parent)
chain: ENLFTGEDLDELEEELNTLDLEE

variants of: B1; test: protein stability index of a GFP-peptide fusion (GPS, HEK-293T) (PSI 1-6); higher = more stable; settings: c terminus: native;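 further: lentivirally expressed fusions sorted by FACS into six bins by GFP to DsRed ratio, PSI derived from sequencing read proportions per bin multiplied by bin number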
Decide using protein stability index: a value greater than or equal to 4 is 1, a smaller one is 0.

Some solved cases for reference:
INSERT INTO measurements (sequence_chain, class_assignment) VALUES
  ('ENLFTGEDLDELEEELDTLDLEE', 1),
  ('ENLFTGEDLDEEEEELNTLDLEE', 1),
  ('EVLFTGEDLDELEEELNTLDLEE', 1);

Input: Is it the case that ANLFTGEDLDELEEELNTLDLEE has protein stability index reaching or exceeding 4?
Output: 1

Input: Is it the case that HNLFTGEDLDELEEELNTLDLEE has protein stability index reaching or exceeding 4?
Output: 0

Input: Is it the case that ENLFTGEDLDELEESLNTLDLEE has protein stability index reaching or exceeding 4?
Output: 1

Input: Is it the case that ENLFTGEDLDELEEEHNTLDLEE has protein stability index reaching or exceeding 4?
Output: 1

Input: Is it the case that ENLFTGEDLDELIEELNTLDLEE has protein stability index reaching or exceeding 4?
Output: 1
